test system: MALME-3M melanoma; experiment: NCI tumour cell line growth inhibition, 48 h
QUANTITY: TGI (µM)
Please state the figure in µM; there is no need to write the unit.

Past entries and their recorded results:
CC[C@@]1(O)C(=O)OCc2c1cc1n(c2=O)Cc2cc3c([N+](=O)[O-])c(OC)ccc3nc2-1 ... 3.09
C=C(C)[C@@H]1CC[C@]2(COC(C)=O)CC[C@]3(C)[C@H](CC[C@@H]4[C@@]5(C)CCCN(C(C)=O)C(C)(C)[C@@H]5CC[C@]43C)[C@@H]12 ... 3.05
CN1CCN(Cc2ccc(NC(=O)c3cnc(F)c(C#Cc4cnc(N)c5ncccc45)c3)cc2C(F)(F)F)CC1 ... 0.234

# TGI lookup, item CCOC(=O)c1c2c(n(Cc3ccc(Cl)cc3Cl)c1C)-c1nc(Cc3ccccc3)[nH]c1C(=O)C2=O
3.66

Which TGI value is on record for COc1cc([C@@H]2c3cc4c(cc3[C@@H](NC(=O)c3cccc(N)c3)C3COC(=O)[C@@H]32)OCO4)cc(OC)c1O (stereo not given in full) ?
8.87

Value lookup for TGI; key = CCN(CCCNC(=O)Cc1cc(=O)oc2cc(N(C)C)ccc12)CCNc1ccnc2cc(Cl)ccc12
3.86

TGI for Clc1ccc(C(c2ccc(Cl)cc2)c2cncnc2)cc1 ?
36.1

What measured TGI goes with CCCCC/C=C1\CC(CO)(COC(=O)CC(C(C)C)C(C)C)OC1=O (stereo not given) ?
31.9

For C=C(C)C[C@H](Sc1nc2ccccc2s1)[C@H](C)O , what is its reported TGI?
72

Please look up its TGI: O=C(Nc1cccc(-n2cc(-c3ccncc3)c(-c3ccc(Cl)c(O)c3)n2)c1)Nc1cccc(C(F)(F)F)c1
20.1

# query: TGI of entry Cc1nn(-c2ccccc2)c(-n2ccnc2)c1/C=N/Nc1nc(-c2ccc(Cl)c(Cl)c2)cs1
9.21
